Tested on: 755483-174-R-J1-PDC complex spheroid growth, percent test/control;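 note: spheroids exposed to compounds for seven days before readout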
Experiment: Anticancer human tumor 755483-174-R-J1-PDC patient-derived rhabdomyosarcoma cell line growth inhibition [Asc]
Settings: second compound 1 µM; first compound 1 µM; hits give low values
Measured attribute: viability, T/C (%)
Numbers only here, please. The scale is %.

Consider the worked cases shown below.
O=C(c1cc(Cc2n[nH]c(=O)c3ccccc23)ccc1F)N1CCN(C(=O)C2CC2)CC1 + CNC(C)C(=O)NC1CN(S(=O)(=O)c2cccc(S(=O)(=O)N3CCC4CCC(C(=O)NC(c5ccccc5)c5ccccc5)N4C(=O)C(NC(=O)C(C)NC)C3)c2)CCC2CCC(C(=O)NC(c3ccccc3)c3ccccc3)N2C1=O ... 6.73
O=C(c1cc(Cc2n[nH]c(=O)c3ccccc23)ccc1F)N1CCN(C(=O)C2CC2)CC1 + Cc1c(S(C)(=O)=O)c(-c2cc(F)cc(N3CCN(c4ccc(NS(=O)(=O)c5ccc(NC(CCN6CCC(C(=O)OCCCP(=O)(O)O)CC6)CSc6ccccc6)c(S(=O)(=O)C(F)(F)F)c5)cc4)CC3)c2)c(-c2ccc(Cl)cc2)n1C(C)C ... 31.6

Then there is this molecule:
So what does the record say about viability, T/C for CCN1CCN(Cc2ccc(Nc3ncc(F)c(-c4cc(F)c5nc(C)n(C(C)C)c5c4)n3)nc2)CC1 + Cc1c(S(C)(=O)=O)c(-c2cc(F)cc(N3CCN(c4ccc(NS(=O)(=O)c5ccc(NC(CCN6CCC(C(=O)OCCCP(=O)(O)O)CC6)CSc6ccccc6)c(S(=O)(=O)C(F)(F)F)c5)cc4)CC3)c2)c(-c2ccc(Cl)cc2)n1C(C)C ?
49.7
